Attribution: ChEMBL document CHEMBL1687780

Item-by-item account of MIC
Tested on: Mycolicibacterium smegmatis
Experiment: Antibacterial activity against Mycobacterium smegmatis harboring 23S rRNA G2505A mutant after 24 generation times
Format: functional
Your answer is read as µg/mL, so omit the unit and give the number.

Below, each entry is followed by its recorded MIC result.
compound	system under test	measured quantity	unit spec	reading
O=C(N[C@H](CO)[C@H](O)c1ccc([N+](=O)[O-])cc1)C(Cl)Cl [CHLORAMPHENICOL]	Mycolicibacterium smegmatis	MIC	µg/mL	128
CC(=O)NC[C@H]1CN(c2ccc(N3CCOCC3)c(F)c2)C(=O)O1 [LINEZOLID]	Mycolicibacterium smegmatis	MIC	µg/mL	16

q: I have this compound here, C=C[C@]1(C)C[C@@H](OC(=O)CSC(C)(C)CNC(=O)[C@H](N)C(C)C)[C@]2(C)[C@H](C)CC[C@]3(CCC(=O)[C@H]32)[C@@H](C)[C@@H]1O [VALNEMULIN] , and I need its recorded MIC.
a: 32

q: I have this compound here, CCC[C@@H]1C[C@@H](C(=O)N[C@@H]([C@H]2O[C@H](SC)[C@H](O)[C@@H](O)[C@H]2O)[C@H](C)Cl)N(C)C1 [CLINDAMYCIN] , and I need its recorded MIC.
a: 16
